src = patent US20240376214A1

# assay-system: human c-Met (HGFR), full length, on the cell surface (human, UniProt P08581 25-1390)
# Sequence (P08581 25-1390 limits assumed): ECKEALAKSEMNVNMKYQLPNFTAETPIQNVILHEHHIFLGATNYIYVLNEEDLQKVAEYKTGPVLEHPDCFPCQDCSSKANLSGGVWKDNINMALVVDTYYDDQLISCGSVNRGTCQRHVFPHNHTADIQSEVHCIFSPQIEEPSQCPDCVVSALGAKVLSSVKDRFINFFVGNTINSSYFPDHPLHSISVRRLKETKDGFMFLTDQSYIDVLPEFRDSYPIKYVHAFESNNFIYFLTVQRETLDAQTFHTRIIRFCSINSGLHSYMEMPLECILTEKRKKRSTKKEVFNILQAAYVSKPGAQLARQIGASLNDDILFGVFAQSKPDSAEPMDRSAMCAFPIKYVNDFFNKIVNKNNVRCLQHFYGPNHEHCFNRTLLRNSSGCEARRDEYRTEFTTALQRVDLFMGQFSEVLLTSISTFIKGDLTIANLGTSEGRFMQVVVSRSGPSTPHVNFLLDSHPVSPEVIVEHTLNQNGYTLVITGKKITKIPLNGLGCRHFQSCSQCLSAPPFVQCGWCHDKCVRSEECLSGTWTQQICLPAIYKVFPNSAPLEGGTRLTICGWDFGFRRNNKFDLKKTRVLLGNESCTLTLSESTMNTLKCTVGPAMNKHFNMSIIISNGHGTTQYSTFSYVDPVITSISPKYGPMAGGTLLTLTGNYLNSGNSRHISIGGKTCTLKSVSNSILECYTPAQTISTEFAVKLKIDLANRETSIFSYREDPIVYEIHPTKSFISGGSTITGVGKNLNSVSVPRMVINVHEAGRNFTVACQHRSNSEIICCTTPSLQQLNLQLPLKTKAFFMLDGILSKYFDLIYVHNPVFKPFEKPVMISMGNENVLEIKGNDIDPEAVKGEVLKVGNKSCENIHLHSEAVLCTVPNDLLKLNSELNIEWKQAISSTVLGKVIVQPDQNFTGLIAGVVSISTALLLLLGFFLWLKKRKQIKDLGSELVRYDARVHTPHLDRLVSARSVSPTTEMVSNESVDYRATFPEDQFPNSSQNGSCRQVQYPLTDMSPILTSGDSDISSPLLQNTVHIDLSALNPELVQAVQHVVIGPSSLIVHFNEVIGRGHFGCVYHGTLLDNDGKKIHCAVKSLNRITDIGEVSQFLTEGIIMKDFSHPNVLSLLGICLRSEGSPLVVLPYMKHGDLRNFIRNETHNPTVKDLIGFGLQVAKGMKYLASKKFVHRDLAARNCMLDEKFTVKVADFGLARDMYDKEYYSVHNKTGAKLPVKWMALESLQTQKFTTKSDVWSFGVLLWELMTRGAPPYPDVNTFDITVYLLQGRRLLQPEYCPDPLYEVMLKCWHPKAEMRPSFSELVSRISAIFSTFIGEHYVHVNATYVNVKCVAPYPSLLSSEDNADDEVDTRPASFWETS
# assay-info: cell-based or functional assay
outcome-measure: IC50, in vitro cytotoxicity, MKN-45, -HGF

[
  {
    "binder": "ADC1 (antibody, human IgG1, kappa, V domains shown, vc-seco-DUBA linker-drug on the engineered cysteine at HC position 41 (Kabat); DAR 1.5) VH: EVQLQQSGPELLKPGASVKMSCKASGYIFTDYFMNWVKQSCGKSLEWIGRVNPKNGDITYNQKFRGKATLTVDKSLTTAYMQLNSLTSEDSAVYFCAYDGYYDGMDFWGQGTSVTVSS VL: ENVLTQSPAIMSASPGEKVTMTCRANSSVSSNFLHWYQQKSGASPKLWISSTSNLAFGVPPRFSGSGSGTSYSLTISSVEAEDAATYYCHQYSGHPFTFGSGTKLEIKR",
    "data-value": "0.73 nM"
  },
  {
    "binder": "ADC3c (antibody, human IgG1, kappa, V domains shown, vc-seco-DUBA linker-drug on the engineered cysteine at HC position 41 (Kabat); DAR 1.8) VH: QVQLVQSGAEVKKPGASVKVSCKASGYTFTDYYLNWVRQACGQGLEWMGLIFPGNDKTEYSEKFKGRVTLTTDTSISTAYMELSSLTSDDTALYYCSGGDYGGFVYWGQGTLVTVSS VL: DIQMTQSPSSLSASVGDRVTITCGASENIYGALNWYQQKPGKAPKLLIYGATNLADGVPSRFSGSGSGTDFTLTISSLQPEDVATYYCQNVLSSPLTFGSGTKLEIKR",
    "data-value": "0.41 nM"
  },
  {
    "binder": "ADC2c (antibody, human IgG1, kappa, V domains shown, vc-seco-DUBA linker-drug on the engineered cysteine at HC position 41 (Kabat); DAR 1.7) VH: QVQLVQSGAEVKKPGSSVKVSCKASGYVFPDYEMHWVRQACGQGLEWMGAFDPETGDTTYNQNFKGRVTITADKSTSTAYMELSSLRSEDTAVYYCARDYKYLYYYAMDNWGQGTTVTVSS VL: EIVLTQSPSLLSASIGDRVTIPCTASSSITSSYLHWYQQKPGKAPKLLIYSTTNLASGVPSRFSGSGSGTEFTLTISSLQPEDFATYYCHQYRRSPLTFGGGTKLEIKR",
    "data-value": "0.41 nM"
  }
]
